Consider the following molecules and their measured viability, T/C readings.
# Test system: 898857-211-R-J1-PDC complex spheroids, growth % test/control;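 note: spheroids exposed to compound for seven days before readout; 100% = DMSO vehicle control wells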
# testDescription: Anticancer human tumor 898857-211-R-J1-PDC patient-derived melanoma cell line growth inhibition [RAS]
# measurementConditions: second compound 10 µM; first compound 1 µM; stronger effect = lower value

- molecule: "CC(C)NCC(C(=O)N1CCN(c2ncnc3c2C(C)CC3O)CC1)c1ccc(Cl)cc1 (stereo not given) + C#Cc1c(F)ccc2cc(O)cc(-c3ncc4c(N5CC6CCC(C5)N6)nc(OCC56CCCN5CC(F)C6)nc4c3F)c12"
  viability, T/C: "33.8%"
- molecule: "Cc1nc(N2CCC3(CC2)COC(C)C3N)c(CO)nc1Sc1ccnc(N)c1Cl (stereo not given) + C#Cc1c(F)ccc2cc(O)cc(-c3ncc4c(N5CC6CCC(C5)N6)nc(OCC56CCCN5CC(F)C6)nc4c3F)c12"
  viability, T/C: "52.2%"
- molecule: "CC(Nc1ccc2c(c1)OCCn1cc(N3C(=O)OCC3C(F)F)nc1-2)C(N)=O (stereo not given) + C#Cc1c(F)ccc2cc(O)cc(-c3ncc4c(N5CC6CCC(C5)N6)nc(OCC56CCCN5CC(F)C6)nc4c3F)c12"
  viability, T/C: "40.1%"
- molecule: "CCN1CCN(Cc2ccc(Nc3ncc(F)c(-c4cc(F)c5nc(C)n(C(C)C)c5c4)n3)nc2)CC1 + C#Cc1c(F)ccc2cc(O)cc(-c3ncc4c(N5CC6CCC(C5)N6)nc(OCC56CCCN5CC(F)C6)nc4c3F)c12"
  viability, T/C: "2.36%"

viability, T/C lookup needed for C=CC(=O)Nc1cc(Nc2nccc(-c3cn(C)c4ccccc34)n2)c(OC)cc1N(C)CCN(C)C + C#Cc1c(F)ccc2cc(O)cc(-c3ncc4c(N5CC6CCC(C5)N6)nc(OCC56CCCN5CC(F)C6)nc4c3F)c12 , thanks. 0.87%
